# System: TK-10
# PROTOCOL DESCRIPTION: NCI tumour cell line growth inhibition, 48 h
The source made the active and inactive calls. Rule as the data show it: active = GI50 up to about 1.1 µM and inactive = higher.
Respond only with the outcome that fits, drawn from active, inactive

// query Short answer needed: outcome of this test for OC12CC/C(=N/OCc3ccccc3)CC1c1ccccc12 (centres undefined) ?
// result inactive

// query Short answer needed: outcome of this test for c1ccc(CCN2CCN=C2Cc2ccccc2)cc1 ?
// result inactive

// query Short answer needed: outcome of this test for Cc1ccc(/N=N/C(C2=NC(=O)CS2)c2nc3ccccc3[nH]2)cc1 (centres undefined) ?
// result inactive

// query Short answer needed: outcome of this test for CN(CCCNC(=O)c1c2ccc3ccccc3c2nn1C)CCCNC(=O)c1c2ccc3ccccc3c2nn1C ?
// result inactive

// query Short answer needed: outcome of this test for Cc1coc2c1C[C@@]1(C)[C@H](CCC[C@@H]1C)[C@H]2O ?
// result inactive

// query Short answer needed: outcome of this test for CCCCCCCC(=O)OC(CBr)COC(=O)C(C)(C)C (centres undefined) ?
// result inactive

// query Short answer needed: outcome of this test for O=C(O)CC[C@H](NC(=O)c1ccc(-n2nc3ccc(=O)cc-3[nH]c2=O)cc1)C(=O)O ?
// result inactive

// query Short answer needed: outcome of this test for COP(=O)(CP(=O)(OC)OCCC(C)CCC=C(C)C)OC (centres undefined) ?
// result inactive

// query Short answer needed: outcome of this test for C=C1[C@H]2O[C@H]2[C@@H](OC(C)=O)[C@@]2(C)[C@@H](OC(C)=O)C[C@@H](OC(=O)CCC)[C@@](C)(O)[C@@H]2[C@@H](OC(C)=O)[C@]2(O)[C@@H](C)C(=O)O[C@H]2[C@H]1Cl ?
// result active

// query Short answer needed: outcome of this test for CC#CC1C(OC(=O)c2ccccc2)CCCC1(CI)N=[N+]=[N-] (centres undefined) ?
// result inactive

// query Short answer needed: outcome of this test for O=C1NCCS(=O)(=O)N[C@@H](CC2=CC=CCC2)C(=O)N2CCCC12 (some centres undefined) ?
// result inactive

// query Short answer needed: outcome of this test for O=C1OC2(CCCCC2)C(Oc2ccc(Cl)cc2)=C1F ?
// result inactive

// query Short answer needed: outcome of this test for C[C@@H]1C[C@H]2[C@@H]3CCC4=CC(=O)C=C[C@]4(C)[C@@]3(F)[C@@H](O)C[C@]2(C)[C@@]1(O)C(=O)CO ?
// result inactive

// query Short answer needed: outcome of this test for Cn1nc2ccccc2cc1=O ?
// result inactive

// query Short answer needed: outcome of this test for C=CCCOC(=O)CO[N+](=O)[O-] ?
// result inactive

// query Short answer needed: outcome of this test for Nc1nc(Cl)cc(NCCCNc2cc(Cl)nc(N)n2)n1 ?
// result inactive

// query Short answer needed: outcome of this test for Clc1cc(OC23CC4CC(CC(C4)C2)C3)nc(Cl)n1 ?
// result inactive

// query Short answer needed: outcome of this test for CN1S(=O)(=O)N(C)P12(N=P(CP(=NP13(N(C)S(=O)(=O)N1C)N(C)S(=O)(=O)N3C)(c1ccccc1)c1ccccc1)(c1ccccc1)c1ccccc1)N(C)S(=O)(=O)N2C ?
// result inactive

// query Short answer needed: outcome of this test for CC(C)(C)OP(=O)(OC(C)(C)C)C(O)c1ccc(/C=C(\C#N)C(N)=O)cc1 (centres undefined) ?
// result inactive
